- study_system: bFGF (Homo sapiens, UniProt P09038 P09038:143-288)
- Sequence (P09038 143-288, one chain of several): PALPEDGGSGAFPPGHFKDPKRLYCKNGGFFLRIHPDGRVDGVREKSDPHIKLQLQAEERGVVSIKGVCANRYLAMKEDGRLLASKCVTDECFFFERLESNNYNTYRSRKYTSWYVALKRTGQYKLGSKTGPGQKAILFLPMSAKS
- test_protocol: filter; specificity control; random RNA 0.0375 and 10.3 nM
- condition_parameters: tags: R&D Systems; label: 32P; pseudoknot (predicted)
experimental_readout: Kd (nM)
Express the result in nM but write the number alone.

Record summary for GGGAGGACGAUGCGGUGGUCUCCCAAUUCUAAACUUUCUCCAUCGUAUC (ssRNA, 2'-F pyrimidines) [14F3'T] : reported Kd = 10
